- System: NIH3T3
- assay_explanation: Cytotoxic Profiling of Annotated Libraries Using Quantitative High-Throughput Screening (AID 1296008); also: nearly all actives have a fitted effect of over 60% in size
- recorded_conditions: Five cell lines viability, CellTiter-Glo ATP luminescence, 48-72 h
Results filed as inconclusive are left out. Activity calls are given as the source filed them. Calls follow the shape of the dose curve; as a rule, active = well fitted inhibition curve with a large enough effect; inconclusive = small, poorly fitted or top-dose-only effect; inactive = flat fitted curve, though single readings scatter.
Possible outcomes: active, inactive

[[record]]
molecule_smiles = "CO[C@@H](C(=O)N1Cc2[nH]nc(NC(=O)c3ccc(N4CCN(C)CC4)cc3)c2C1)c1ccccc1"
class = "active"

[[record]]
molecule_smiles = "CCCNC(=O)NS(=O)(=O)c1ccc(Cl)cc1"
class = "inactive"

[[record]]
molecule_smiles = "NS(=O)(=O)c1cccc2c1C(=O)c1cccc(O)c1C2=O"
class = "active"


* * *

- assay_explanation: Quantitative High-Throughput drug screen in 47 multiple myeloma cell lines against the NCATS MIPE library collection: OCIMY5_PLB cell viability assay (AID 1918988); also: potency is read from the fitted curve at half-maximal effect; nearly all actives have a fitted effect of over 65% in size
- recorded_conditions: OCI-MY5 myeloma viability, ATP luminescence, 48 h; series mostly up to 45.8 µM
- Text: PI: Beverly A. Mock Ph.D. Laboratory of Cancer Biology and Genetics, Center for Cancer Research, National Cancer Institute, National Institute of Health, Bethesda, Maryland […] 5; Detector; 425V; Luminescence; Viewlux PerkinElmer. […] 1. […] Briefly, the corresponding myeloma cell lines were screened in 1,536-well plates with 500 cells, 5-uL per well for inhibition of cell viability (assessed by measuring ATP levels with CellTiterGlo). […]
Inconclusive results are not listed. The source made the active and inactive calls. Calls follow the shape of the dose curve; as a rule, active = well fitted cell-killing curve with a large enough effect; inconclusive = small, poorly fitted or top-dose-only effect, or effect the other way; inactive = no such curve, though single readings can be large or run the other way.
Recorded measurements of Potency, one per entry
readout_label: Potency

[[record]]
compound = "CN1C[C@H]2c3ccccc3Oc3ccc(Cl)cc3[C@@H]2C1"
readout_label = "Potency"
reported_result = "13.2 µM (active)"

[[record]]
compound = "CCS(=O)(=O)N1CC(CC#N)(n2cc(-c3ncnc4[nH]ccc34)cn2)C1"
readout_label = "Potency"
reported_result = "7.43 µM (active)"

[[record]]
compound = "O=C(N[C@@H](c1ccccc1)[C@@H]1CCCCN1)c1cccc(C(F)(F)F)c1Cl"
readout_label = "Potency"
reported_result = "18.7 µM (active)"

[[record]]
compound = "O=c1cc(-c2cccc3c2Sc2ccccc2S3)oc(N2CCOCC2)c1"
readout_label = "Potency"
reported_result = "20.9 µM (active)"

[[record]]
compound = "CC[C@]1(O)C[C@@H]2CN(CCc3c([nH]c4ccccc34)[C@@](C(=O)OC)(c3cc4c(cc3OC)N(C=O)[C@@H]3C45CCN4CC=C[C@](CC)([C@H]45)[C@@H](OC(C)=O)[C@]3(O)C(=O)OC)C2)C1 (stereo not given in full)"
readout_label = "Potency"
reported_result = "20.9 µM (active)"

[[record]]
compound = "O=C(O)C(O)Cc1ccc(O)c(O)c1 (stereo not given)"
readout_label = "Potency"
reported_result = "23.5 µM (active)"

[[record]]
compound = "COC1CCC(N(C(=O)C2CCC(C)CC2)c2cc(C3=CCCCC3)sc2C(=O)O)CC1 (stereo not given)"
readout_label = "Potency"
reported_result = "11.8 µM (active)"

[[record]]
compound = "CC1(C)CCC(CN2CCN(c3ccc(C(=O)NS(=O)(=O)c4ccc(NCC5CCOCC5)c([N+](=O)[O-])c4)c(Oc4cnc5[nH]ccc5c4)c3)CC2)=C(c2ccc(Cl)cc2)C1"
readout_label = "Potency"
reported_result = "0.0148 µM (active)"

[[record]]
compound = "Nc1nc(F)nc2c1ncn2[C@@H]1O[C@H](COP(=O)(O)O)[C@@H](O)[C@H]1O"
readout_label = "Potency"
reported_result = "23.5 µM (active)"

[[record]]
compound = "CCc1ccc(OCc2ccccc2C(=O)Nc2ccc3nc(C)cc(N)c3c2)cc1"
readout_label = "Potency"
reported_result = "7.43 µM (active)"

[[record]]
compound = "Cc1ccc(F)c(NC(=O)Nc2ccc(-c3cccc4[nH]nc(N)c34)cc2)c1"
readout_label = "Potency"
reported_result = "20.9 µM (active)"

[[record]]
compound = "O=C(O)[C@H]1O[C@H](Oc2cc3oc(-c4ccccc4)cc(=O)c3c(O)c2O)[C@H](O)[C@@H](O)[C@H]1O"
readout_label = "Potency"
reported_result = "23.5 µM (active)"

[[record]]
compound = "CC(C)(C)C(=O)Oc1ccc2c(c1)nc(NC(=O)c1cccc([N+](=O)[O-])c1)n2CCCO"
readout_label = "Potency"
reported_result = "18.7 µM (active)"

[[record]]
compound = "Nc1ncnc2ccccc12"
readout_label = "Potency"
reported_result = "26.4 µM (active)"

[[record]]
compound = "C[C@H](NC(=O)c1sccc1OCc1ccc(Cl)cc1)c1ccccc1"
readout_label = "Potency"
reported_result = "16.6 µM (active)"

[[record]]
compound = "Oc1ccc(C2=Cc3ccc(O)cc3OC2)cc1"
readout_label = "Potency"
reported_result = "2.96 µM (active)"

[[record]]
compound = "C[C@]12CCC3c4ccc(O)cc4CCC3C1CCC2=O (stereo not given in full)"
readout_label = "Potency"
reported_result = "0.0019 µM (active)"

[[record]]
compound = "CCOC(=O)C1=C(N)Oc2ccc(Br)cc2C1C(C#N)C(=O)OCC (stereo not given)"
readout_label = "Potency"
reported_result = "9.35 µM (active)"

[[record]]
compound = "Cc1c(NC(=O)c2ccc(C(C)(C)C)cc2)cccc1-c1cn(C)c(=O)c(Nc2ccc(C(=O)N3CCOCC3)cc2)n1"
readout_label = "Potency"
reported_result = "16.6 µM (active)"

[[record]]
compound = "Cc1cc(OCCCc2c(C(=O)O)n(Cc3cccnc3)c3c(-c4c(COc5ccc(N6CCN([S+](C)(=O)[O-])CC6)cc5)nn(C)c4C)cccc23)cc(C)c1Cl"
readout_label = "Potency"
reported_result = "23.5 µM (active)"

